tested on: HCC-2998 colon; test: NCI-60 one-dose screen, 48 h; details: 10 µM unless noted
This is part of a sample that, as a whole, favours compounds with a hit. Of some 83,000 tested, about 20% had one in any assay. The source made the active and inactive calls. How the source made its calls: active means growth percent below 10; inactive means the rest.
Could you please pick one outcome from this set? active, inactive

# count of solved cases: 6
Data request: What outcome does the record of this test show for O=C(CN1C(=O)/C(=C\c2ccc(Cl)cc2)SC1=S)Nc1ncc(Cc2ccc(Cl)cc2)s1 ?
Data returned: inactive

Data request: What outcome does the record of this test show for COc1ccc(/C=C/C(=O)c2ccc(Nc3nc(NCCO)nc(Nc4ccc(Cl)cc4)n3)cc2)cc1 ?
Data returned: inactive

Data request: What outcome does the record of this test show for CN1C(=O)N(C)C2C1NN=c1s/c(=C\c3c[nH]c4ccccc34)c(=O)n12 (stereo not drawn) ?
Data returned: inactive

Data request: What outcome does the record of this test show for Cc1ccc(S(=O)(=O)c2c(COC(=O)c3cccc(C)c3)c(-c3ccccc3)nn2C)cc1 ?
Data returned: inactive

Data request: What outcome does the record of this test show for O=C(c1nc2ccccc2[nH]1)C1C(c2ccc(F)cc2)C2CC3CCCCC3N2[C@@]12C(=O)Nc1ccc(Cl)cc12 (stereo partly drawn) ?
Data returned: inactive

Data request: What outcome does the record of this test show for COc1cc(/C=C/C(=O)c2c(C)nc3ccccc3c2/C=C/c2ccccc2)cc(OC)c1OC ?
Data returned: active

Further cases:
Data request: What outcome does the record of this test show for O=c1c2cc(F)ccc2sc2c(Nc3ccncc3)nc3ccccc3c12 ?
Data returned: inactive

Data request: What outcome does the record of this test show for COc1ccc(CCN2CCC(CN(C)Cc3cnn(-c4ccccc4)c3)CC2)cc1 ?
Data returned: inactive

====

Catalogue of compounds with associated growth
system: SF-295 CNS; assay: NCI-60 one-dose screen, 48 h (100 = growth as untreated, 0 = no growth, -100 = all killed); conditions: 10 µM unless noted
This is part of a sample that, as a whole, favours compounds with a hit. Of some 83,000 tested, about 20% had one in any assay.
The response must be a number in % with no trailing unit.

Below: 2 compounds and their reported growth.
Data request: Returns the measured growth for the input compound. Input: O=C(NCc1ccco1)C1CN(c2ccc(Cl)cc2)N(c2ccc(Cl)cc2)C1=O (stereo not drawn)
Data returned: 30.1

Data request: Returns the measured growth for the input compound. Input: CN1C(=O)N(C)C2Nn3c(s/c(=C4\C(=O)N(CCc5ccccc5)c5ccccc54)c3=O)=NC21 (stereo not drawn)
Data returned: 72

Here is another compound to look at.
Data request: Returns the measured growth for the input compound. Input: O=C(/C=C/c1ccc(C(F)(F)F)cc1)c1ccc(Nc2nc(NCCO)nc(N3CCOCC3)n2)cc1
Data returned: 81.4

====

System: UACC-257 melanoma
Assay: NCI-60 one-dose screen, 48 h
Details: 10 µM unless noted
Protocol: Cells are grown in 96 well plates and exposed to the test compound for 48 hours. Compounds are tested at a single concentration, which is 10^-5 M for most compounds. The reported endpoint is percent growth (GI% or GIPRCNT), where numbers from 0 - 100% represent growth inhibition, and numbers from -100% - 0 represent cell death. For example, a value of 40 represents 60% growth inhibition. A value of 0 means no net growth occurred over the course of the experiment. […]
The panel holds about 83,000 compounds, 20% with a hit somewhere; the sample as a whole holds those more often. Active and inactive are the calls of the source. Rule for the calls: active = growth percent below 10; inactive = the rest.
Could you please pick one outcome from this set? 1 (yes) = active, 0 (no) = inactive

Data request: What outcome does the record of this test show for NCCOc1ncccc1/C=C1\c2ccccc2-c2ccc(F)cc21 ?
Data returned: 0 (no)

Data request: What outcome does the record of this test show for Cc1ccc(CN2CCC(C(=O)Nc3ccc(-c4cc5ccccc5[nH]4)cc3)CC2)o1 ?
Data returned: 0 (no)

Shifting focus to the compound that follows.
Data request: What outcome does the record of this test show for O=S1(=O)N(Cc2ccccc2)[C@@H](Cc2ccccc2)C2O[C@H]2[C@H](Cc2ccccc2)N1Cc1ccccc1 (stereo not given in full) ?
Data returned: 0 (no)
